- System: T47D
- methodNotes: NCI tumour cell line growth inhibition, 48 h
The source made the active and inactive calls. No stated cut-off is given here; in the data, active = GI50 up to about 1.1 µM and inactive = higher.
# valid calls are 1 (active), 0 (inactive); nothing else

# compound, labelValue
records = [
    ("N#CC1=C2SCCN2C(=O)C(C#N)C12CCCCC2 (centres undefined)", 0),
    ("Cc1ccccc1C(=O)NC(O)(C(F)(F)F)C(F)(F)F", 0),
]

Query: Identify the outcome logged in this assay for the compound shown: O=c1onc2n1-c1ccc(Cl)cc1C(=S)N1CSCC21 (centres undefined)
Reply: 0

Query: Identify the outcome logged in this assay for the compound shown: O=C(OCC(OC(=O)c1ccccc1)C(OC(=O)c1ccccc1)C(OC(=O)c1ccccc1)c1cnn(-c2ccccc2)n1)c1ccccc1 (centres undefined)
Reply: 0

Query: Identify the outcome logged in this assay for the compound shown: C=C1CC2(CC(c3ccccc3C)OC(c3ccccc3C)C2)OC1=O (centres undefined)
Reply: 0

Query: Identify the outcome logged in this assay for the compound shown: CCCCCCCCCCCCCCCCSS(C)(=O)=O
Reply: 0

Query: Identify the outcome logged in this assay for the compound shown: CC1(C)[C@@H]2CC[C@@]1(C)[C@@H]1O[C@@H](O[C@@H](CN)c3cc(Cl)c(OCc4ccccc4)c(OCc4ccccc4)c3)C[C@H]21
Reply: 1

Query: Identify the outcome logged in this assay for the compound shown: Cc1ccc2c(c1)CC1(C2=O)[C@H](c2ccccc2)C2C(=O)c3ccc(C)cc3C2[C@H]1c1ccccc1 (some centres undefined)
Reply: 0

Query: Identify the outcome logged in this assay for the compound shown: COc1ccc2c(c1)NC1(CCN(CCCC(=O)c3ccc(F)cc3)CC1)N=N2
Reply: 0

====

- System: XF498
- methodNotes: NCI tumour cell line growth inhibition, 48 h
The source made the active and inactive calls. No stated cut-off is given here; in the data, active = GI50 up to about 1.1 µM and inactive = higher.
# valid calls are active, inactive; nothing else

# molecule, labelValue
rows = [
    ("Nc1ccn(C2CCC(CO)O2)c(=O)n1 (stereo not given)", "inactive"),
    ("COC(=O)C1(c2ccc(OC)cc2)NC(c2ccccc2)C2C(=O)N(c3ccc(OC)cc3)C(=O)C21 (stereo not given)", "inactive"),
    ("COc1ccc(-c2nc(Sc3c([N+](=O)[O-])ncn3C)n[nH]2)cc1", "inactive"),
    ("NS(=O)(=O)C1CCCCC1C(=O)NNC(=O)C(=O)Nc1nnc(S)[nH]1 (stereo not given)", "inactive"),
    ("O=C1CN=C(c2ccccc2)c2ccncc2N1", "inactive"),
    ("CC(=O)CC(=O)CCC(=O)O", "inactive"),
    ("CCCCCCc1ccc(O)cc1O", "inactive"),
    ("Nc1nc(O)c2c(ncn2CCO)n1", "inactive"),
]

Query: Identify the outcome logged in this assay for the molecule shown: CN1C(=O)N(C)C(N2CCCC2)c2c1nc1ccccn1c2=O (stereo not given)
Reply: inactive

Query: Identify the outcome logged in this assay for the molecule shown: CCc1cccc(CC)c1NC(=O)C1=CNC(C)=C(C(=O)Nc2c(CC)cccc2CC)C1c1ccc(O)c(OC)c1 (stereo not given)
Reply: inactive

====

- Tested on: SR
- methodNotes: NCI tumour cell line growth inhibition, 48 h
Activity calls are given as the source filed them. Rule as the data show it: active = GI50 up to about 1.1 µM and inactive = higher.
# Lookup of reported GI50 keyed by entry

Past entries and their recorded results:
# compound, reportedMetric, result
measured = [
    ("COc1cccc(OC)c1C1ON=C(c2ccccc2)N1C12CC3CC(CC(C3)C1)C2 (stereo not given)", "GI50", "5.92 µM (inactive)"),
    ("COC(=O)NC(C(F)(F)F)(C(F)(F)F)P1(=O)OCCCO1", "GI50", "20.7 µM (inactive)"),
    ("Cc1ccc2c(c1)CC1(C2=O)[C@H](c2ccccc2)C2C(=O)c3ccc(C)cc3C2[C@H]1c1ccccc1 (stereo not given in full)", "GI50", "36.9 µM (inactive)"),
    ("Cc1ccc(S(=O)(=O)C2=C([Si](C)(C)C)C3CC2[C@@H]2C4C=CC(CC4)[C@H]32)cc1 (stereo not given in full)", "GI50", "> 100 µM (inactive)"),
    ("CNC(=O)C1CCC(=O)N1CN(C(C)=O)c1ccccc1 (stereo not given)", "GI50", "13.6 µM (inactive)"),
    ("Nc1c(-c2nc3ccccc3o2)sc(=S)n1-c1ccc(Cl)cc1", "GI50", "51.5 µM (inactive)"),
]

The compound Fc1ccc(C2SCc3nc4ccccc4n32)c(F)c1 (stereo not given) , when measured on SR, yielded GI50 of 34.6 µM (inactive)

The compound Cn1c(=O)c2c(nc3n(Cc4ccccc4)c(=O)c(NCCBr)cn23)n(C)c1=O , when measured on SR, yielded GI50 of 6.43 µM (inactive)

The compound O=C1OC(c2ccccc2)=N/C1=C\c1ccc(N(CCCl)CCCl)cc1 , when measured on SR, yielded GI50 of 11.6 µM (inactive)

The compound COC(=O)C(/C(=N\O)C(=O)Nc1cccc(Cl)c1C)c1cnc2ccccc2n1 (stereo not given) , when measured on SR, yielded GI50 of > 100 µM (inactive)
